tested on: LOX IMVI melanoma; test: NCI tumour cell line growth inhibition, 48 h
Recorded TGI, one value per entry.
TEST_READOUT: TGI

1. O=C1c2ccccc2C(=O)c2c(OCC3CO3)ccc(OCC3CO3)c21 (configuration not stated) : 0.515 µM
2. COc1ccccc1C1C2=C(COC2=O)OC(C)(C)Oc2cc3c(cc21)OCO3 (configuration not stated) : > 44.2 µM
3. Oc1c(Br)cc(Br)cc1CN(Cc1cc(Br)cc(Br)c1O)C1CCCCC1 : > 100 µM
4. Cc1cc(N(CCOS(C)(=O)=O)CCOS(C)(=O)=O)ccc1C=Nc1ccc(-c2csc(-c3ccccc3)n2)c(Cl)c1 : 28.3 µM
5. CCOC(=O)CSc1nc2ccccc2c(=O)n1N : > 100 µM
6. CC1=C(C)SC(=C2Sc3c(n(C)c(=O)[nH]c3=O)S2)S1 : > 100 µM
7. CCCC(OCC)(OCC)OCC : > 100 µM
